Quick record: HepSE_hepatic failure, Hepatotoxicity.
Numbers only.

Use the examples below as a reference point.
MOLECULE: O=C(O)CCNC(=O)c1ccc(/N=N/c2ccc(O)c(C(=O)O)c2)cc1 [BALSALAZIDE]
HepSE_hepatic failure: 1

MOLECULE: II
HepSE_hepatic failure: 0

MOLECULE: CC(C)[C@@H]1NC(=O)[C@H](CCCCN)NC(=O)[C@@H](Cc2c[nH]c3ccccc23)NC(=O)[C@H](Cc2ccc(O)cc2)NC(=O)[C@@H](NC(=O)[C@H](N)Cc2ccc3ccccc3c2)CSSC[C@@H](C(=O)N[C@H](C(N)=O)[C@@H](C)O)NC1=O [LANREOTIDE]
HepSE_hepatic failure: 0

MOLECULE: C=C[C@H]1C[N@@]2CC[C@H]1C[C@@H]2[C@@H](O)c1ccnc2ccc(OC)cc12
HepSE_hepatic failure: 0

MOLECULE: CCCCC[C@H](O)CC[C@@H]1[C@H]2Cc3cccc(OCC(=O)O)c3C[C@H]2C[C@H]1O
HepSE_hepatic failure: 0

MOLECULE: COC(=O)[C@@H]1CC2=CC(=O)CC[C@]2(C)[C@@]23O[C@@H]2C[C@@]2(C)[C@@H](CC[C@@]24CCC(=O)O4)[C@H]13
HepSE_hepatic failure: 1

MOLECULE: CC(C)[C@H](N)C(=O)OCCOCn1cnc2c(=O)[nH]c(N)nc21
HepSE_hepatic failure: 0

MOLECULE: CO/N=C(\C(=O)N[C@@H]1C(=O)N2C(C(=O)O)=C(COC(C)=O)CS[C@H]12)c1csc(N)n1
HepSE_hepatic failure: 0

I need HepSE_hepatic failure for every entry listed below, if you could help.
1. COc1cccc2c1C(=O)c1c(O)c3c(c(O)c1C2=O)C[C@@](O)(C(C)=O)C[C@@H]3O[C@H]1C[C@H](N)[C@H](O)[C@H](C)O1
2. COc1cc2nc(N3CCN(C(=O)C4CCCO4)CC3)nc(N)c2cc1OC (configuration not stated)
3. Cc1nc(Nc2ncc(C(=O)Nc3c(C)cccc3Cl)s2)cc(N2CCN(CCO)CC2)n1.O
4. CC(=O)N(O)CCCCCNC(=O)CCC(=O)N(O)CCCCCNC(=O)CCC(=O)N(O)CCCCCN
5. CC(C)(Oc1ccc(CCNC(=O)c2ccc(Cl)cc2)cc1)C(=O)O [BEZAFIBRATE]

output:
1: 0; 2: 0; 3: 0; 4: 0; 5: 0

====

System: Hepatotoxicity
QUANTITY MEASURED: HepSE_liver function tests abnormal
Answers are plain numbers.

Some molecules with known HepSE_liver function tests abnormal results, for comparison:
MOLECULE: CCC(C)n1ncn(-c2ccc(N3CCN(c4ccc(OCC5COC(Cn6cncn6)(c6ccc(Cl)cc6Cl)O5)cc4)CC3)cc2)c1=O (configuration not stated) [ITRACONAZOLE]
HepSE_liver function tests abnormal: 1
//
MOLECULE: CC(C)Nc1cccnc1N1CCN(C(=O)c2cc3cc(NS(C)(=O)=O)ccc3[nH]2)CC1 [DELAVIRDINE]
HepSE_liver function tests abnormal: 0
//
MOLECULE: NCC1(CC(=O)O)CCCCC1 [GABAPENTIN]
HepSE_liver function tests abnormal: 1

Please look at the items below and tell me HepSE_liver function tests abnormal for each one, in order.
1. CC(=O)[C@@]1(O)CC[C@H]2[C@@H]3C=C(Cl)C4=CC(=O)[C@@H]5C[C@@H]5[C@]4(C)[C@H]3CC[C@@]21C [CYPROTERONE]
2. Cn1c(=O)c2[nH]cnc2n(C)c1=O.Cn1c(=O)c2[nH]cnc2n(C)c1=O.NCCN [AMINOPHYLLINE]
3. CC(N)Cc1ccccc1 (configuration not stated) [AMPHETAMINE]
4. NC[C@@H]1O[C@H](O[C@H]2[C@@H](O)[C@H](O[C@@H]3[C@@H](O)[C@H](N)C[C@H](N)[C@H]3O[C@H]3O[C@H](CO)[C@@H](O)[C@H](O)[C@H]3N)O[C@@H]2CO)[C@H](N)[C@@H](O)[C@@H]1O [PAROMOMYCIN]

output:
0
0
0
0

Data provenance is ChEMBL document CHEMBL1909294.
